procedure-text: Cytotoxicity against human MRC5 cells assessed as reduction in cell viability incubated for 48 hrs by MTT assay
Type: toxicity, cell-based
property-name: IC50 at 48 h (µM)
The reply should contain only the number, in µM.

compound | property-name | quantitative-readout
OC[C@H]1O[C@@H](n2cnc3c(NCc4ccoc4)ncnc32)[C@H](O)[C@@H]1O | IC50 at 48 h | 1
OC[C@H]1O[C@@H](n2cnc3c(NCc4cccs4)ncnc32)[C@H](O)[C@@H]1O | IC50 at 48 h | 2.1
OC[C@H]1O[C@@H](n2cnc3c(NCc4ccco4)ncnc32)[C@H](O)[C@@H]1O [KINETIN RIBOSIDE] | IC50 at 48 h | 2.5

Now look at this one.
Please fill in: IC50 at 48 h reported for OC[C@H]1O[C@@H](n2nnc3c(NCc4ccco4)ncnc32)[C@H](O)[C@@H]1O = 11.7
